test system: MOLT4; assay: Cytotoxicity against cancer cell lines (Example 5), Molt4; type: cell-based; settings: Tables 5-12; read-out: IC50 Molt4
pIC50: −log10 of the molar value.
metricName: pIC50

• O=C1c2cccc(O)c2C(=O)c2c(O)cc(-c3cccs3)cc21 = 6.68
• COc1cccc2c1C(=O)c1c(OC)cc(NC(=O)COCc3ccccc3)cc1C2=O = 4.60

---

system: HeLa; assay: MTT cytotoxicity assay, HeLa (Table 2); conditions: read-out: IC50 (μM) against HeLa; MTT, 48 h incubation; Table 2
metricName: IC50 (µM)

- O=C(CCl)NCCCOCCOCCOCCCNC(=O)c1cc(O)c2c(c1)C(=O)c1cccc(O)c1C2=O [Compound 21]: 14
- O=C(CBr)NCCCOCCOCCOCCCNC(=O)c1cc(O)c2c(c1)C(=O)c1cccc(O)c1C2=O [Compound 22]: 7
- COc1cccc2c1C(=O)c1c(O)c3c(c(O)c1C2=O)C[C@@](O)(C(=O)CO)C[C@@H]3O[C@H]1C[C@H](N)[C@H](O)[C@H](C)O1 [Doxorubicin, reference compound]: 1.5
